Each recorded value in this set is attributed to the Human Domainome abundance scans (Beltran et al. 2025).

Collected abundance fitness values appear next to each entry.
B1: Calcium-binding protein 2, residues 155 to 219; numbered along this chain, Q9NPB3 (parent)
chain: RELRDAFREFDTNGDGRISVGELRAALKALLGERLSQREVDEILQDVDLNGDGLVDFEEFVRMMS

- Variants of: B1
- Method Notes: abundance fitness (aPCA) (normalised: wild type 0, dead -1); higher = more abundant; growth selection in yeast, the domain comes from the species named
- Condition Details: Homo sapiens
Answer field: number only, no words.

May I ask what abundance fitness has been recorded for `E42Q` ?
-0.272

Another: `D41R`
-0.15

Another: `G21S`
-0.026

Another: `L44T`
0

Another: `V40K`
-0.04

Another: `V47P`
-0.394

Another: `G51N`
0.098

Another: `F10M`
-0.426

Another: `F7P`
-0.997

Another: `E58C`
-0.576

***
May I ask what abundance fitness has been recorded for `L30T` ?
-0.008

Another: `E9T`
0.039

Another: `A26N`
-0.266

Another: `G32I`
-0.438

Another: `R8T`
0.031

Another: `D48R`
0.185

Another: `D46T`
0.042

Another: `D11S`
-0.633

Another: `G14D`
-0.188

Another: `G16C`
-0.527

Another: `G14K`
0.003

Another: `F10T`
-0.144
